System: Human immunodeficiency virus 2
assay summary: Antiviral activity against HIV2 ROD infected in human MT4 cells assessed as inhibition of virus-induced cytopathicity incubated for 4 days by MTT method
Assay type: functional, organism-based
experimental conditions: Human immunodeficiency virus 2, ISOLATE ROD, MT4, 96 h
measured attribute: EC50

> print(dat)
                              line.notation  data.value
1  Cc1cc(S(N)(=O)=O)ccc1NC(=O)CSc1nccc(Oc2c(C)cc(C#N)cc2C)n1     > 46 µM

Data request: Quick check: EC50 of Cc1cc(C#N)cc(C)c1Oc1ccnc(SCC(=O)Nc2ccc(O)cc2)n1 ?
Data returned: > 71 µM

Data request: Please give the measured EC50 for this molecule: Cc1cc(C#N)cc(C)c1Oc1ccnc(SCC(=O)Nc2ccccc2)n1
Data returned: > 320 µM

Data request: # query: EC50 of entry Cc1cc(C#N)cc(C)c1Oc1ccnc(SCC(=O)Nc2ccccc2Cl)n1
Data returned: > 294 µM

Data request: # input molecule: Cc1ccc(NC(=O)CSc2nccc(Oc3c(C)cc(C#N)cc3C)n2)cc1 ; wanted: its EC50
Data returned: > 309 µM

----------
tgt: Human immunodeficiency virus type 1 reverse transcriptase (Human immunodeficiency virus 1, UniProt Q72547)
assay summary: Inhibition of HIV1 recombinant wild type reverse transcriptase p66/p51 assessed as reduction in biotin deoxyuridine triphosphate (biotin-dUTP) incorporation using poly(rA)/oligo (dT)16 template and primer by spectrofluorometry
measured attribute: IC50 (nM)
Please give a number only; it is taken to be in nM.

Look over these answered cases.
> print(dat)
                              line.notation  result.unit  data.value
1  Cc1cc(C#N)cc(C)c1Oc1ccnc(SCC(=O)Nc2ccccc2[N+](=O)[O-])n1           nM        1170
2  Cc1cc(C#N)cc(C)c1Oc1ccnc(SCC(=O)Nc2ccccc2Cl)n1           nM         473

Please examine the following record next.
Data request: Param item = Cc1cc(S(N)(=O)=O)ccc1NC(=O)CSc1nccc(Oc2c(C)cc(C#N)cc2C)n1 ; retrieve measured IC50.
Data returned: 2780

----------
Test system: Human immunodeficiency virus 2
assay summary: Antiviral activity against HIV2 ROD infected in human MT4 cells assessed as inhibition of virus-induced cytopathicity incubated for 4 days by MTT method
Format: functional, organism-based
experimental conditions: Human immunodeficiency virus 2, ISOLATE ROD, MT4, 96 h
measured attribute: EC50

Data request: Param readout= EC50; system= Human immunodeficiency virus 2; entry= Cc1cc(C#N)cc(C)c1Oc1ccnc(SCC(=O)Nc2ccc([N+](=O)[O-])cc2)n1 ; returns value.
Data returned: > 287 µM

----------
assay summary: Selectivity index, ratio of CC50 for human MT4 cells to EC50 for HIV1 3B infected in human MT4 cells
Format: toxicity, cell-based
experimental conditions: HIV1 3B infected MT4 cells, read-out: Ratio CC50/EC50
measured attribute: selectivity ratio

Here are 3 compounds together with their reported answers.
> print(dat)
                              line.notation  data.value
1  Cc1cc(C#N)cc(C)c1Oc1ccnc(SCC(=O)Nc2ccc(C#N)cc2)n1        > 70
2  Cc1cc(C#N)cc(C)c1Oc1ccnc(SCC(=O)Nc2cccc([N+](=O)[O-])c2)n1         > 7
3  Cc1ccc(NC(=O)CSc2nccc(Oc3c(C)cc(C#N)cc3C)n2)cc1        > 61

Data request: Item Cc1cc(C#N)cc(C)c1Oc1ccnc(SCC(=O)Nc2ccc(Cl)c(Cl)c2)n1 has what recorded selectivity ratio?
Data returned: 17

Data request: Item CC(C)Nc1cccnc1N1CCN(C(=O)c2cc3cc(NS(C)(=O)=O)ccc3[nH]2)CC1 has what recorded selectivity ratio?
Data returned: > 67

Data request: Given the entry Cc1cc(C#N)cc(C)c1Oc1nc(Nc2ccc(C#N)cc2)nc(N)c1Br , report its measured selectivity ratio.
Data returned: > 1120

Data request: Find the recorded selectivity ratio belonging to Cc1cc(C#N)cc(C)c1Oc1ccnc(SCC(=O)Nc2cc(Cl)cc(Cl)c2)n1 and report it.
Data returned: > 3.7

Data request: For Cc1ccccc1NC(=O)CSc1nccc(Oc2c(C)cc(C#N)cc2C)n1 , what is its reported selectivity ratio?
Data returned: > 52
